Every entry's value here was drawn from patent US20220146526A1.

Experiment: LC/MS of serum sample: time from blood collection to centrifugation (Table J)
Format: physicochemical, human
Details: serum sample, LC/MS; time from blood collection to centrifugation; detection intensity changed by 30% or more vs 15 minutes
Attribute Measured: Time when compound is affected

Consider the worked cases shown below.
* N[C@@H](CO)C(=O)O | After 6 hours
* O=C(O)[C@@H]1CCCN1 | After 12 hours
* O=c1[nH]c(=O)c2[nH]cnc2[nH]1 | After 4 hours
* C[S+]([O-])CC[C@H](N)C(=O)O (stereo partly shown) [Methionine sulfoxide] | After 6 hours
* N[C@@H](Cc1c[nH]cn1)C(=O)O | After 12 hours
* NCCC(=O)N[C@@H](Cc1cnc[nH]1)C(=O)O | After 4 hours
* O=c1[nH]cnc2nc[nH]c12 | After 4 hours
* N[C@@H](CS)C(=O)O | After 6 hours
* NCC(=O)O | After 12 hours
* N[C@@H](Cc1ccc(O)c(O)c1)C(=O)O | After 4 hours

Q: Time when compound is affected for N[C@@H](CCC(=O)O)C(=O)O ?
Ans: After 4 hours

Q: Quick check: Time when compound is affected of NC(=O)C[C@H](N)C(=O)O ?
Ans: After 12 hours

Q: Could you tell me which Time when compound is affected is on file for O=C(O)CCC(=O)O ?
Ans: After 6 hours

Q: Item under review: Nc1ncnc2c1ncn2[C@@H]1O[C@H](CO)[C@@H](O)[C@H]1O . Reported Time when compound is affected?
Ans: After 4 hours

Q: Dear colleague, I am looking for the recorded Time when compound is affected of the following molecule: O=C(O)CC(O)C(=O)O (stereo not shown)
Ans: After 4 hours

Q: I'd like to know its Time when compound is affected. The molecule in question is NCCc1ccc(O)c(O)c1
Ans: After 12 hours

Q: Return reported Time when compound is affected; argument: NC(=O)c1cccnc1 [Nicotinamide]
Ans: After 4 hours
